Reported % FITC positive Cells values follow for various binders
molecular target: human CD123 (IL3RA) on cells (human) (UniProt P26951); assay: flow cytometry, TF-1 cells, 3 µg antibody
Sequence (P26951 19-378): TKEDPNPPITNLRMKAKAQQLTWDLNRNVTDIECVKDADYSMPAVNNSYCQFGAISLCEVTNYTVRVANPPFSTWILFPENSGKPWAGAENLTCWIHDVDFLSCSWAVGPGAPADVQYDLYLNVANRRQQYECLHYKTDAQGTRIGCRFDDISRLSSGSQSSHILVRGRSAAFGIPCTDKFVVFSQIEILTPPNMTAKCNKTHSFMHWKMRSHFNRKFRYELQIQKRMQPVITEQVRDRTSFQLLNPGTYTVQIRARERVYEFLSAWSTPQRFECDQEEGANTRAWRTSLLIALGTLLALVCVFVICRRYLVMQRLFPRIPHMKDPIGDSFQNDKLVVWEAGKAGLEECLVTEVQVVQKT
endpoint-name: % FITC positive Cells

[[record]]
binder = "CODV-Fab BFX-9B8-G6 × CD3 (bispecific antibody, part only; not given: anti-CD3 arm, linkers, constant domains, V domains shown, not shown: another chain or arm of the molecule; a dimerising Fc or GST; small tags and cut ends) VL: DIVMTQSPSSLAVSAGETVTINCKSSQSFLSSGDERNYVAWYQHKPGQSPKLLIYWASTRHSGVPDRFIGSGSGTDFTLTISSVQAEDLAIYYCQQYYDTPLTFGSGTKLEIK VH: EVKLQESGPSLVQSSQTLSLTCTVSGFSLTSYHIHWVRQPPGKGLEWMGVMWSDGDTSYSSALKSRLSISRDTSQSQVFLKMNSLQTEDTATYYCARGDYSSYIYLWFAYWGQGTLVTVSS"
endpoint_name = "% FITC positive Cells"
reported_result = "31.1%"

[[record]]
binder = "CODV-Fab BFX-3E3-D3 × CD3 (bispecific antibody, part only; not given: CD3 arm, linkers, constant domains, part only) light, part: QFVLTQPNSVSTNLGSTVKLSCKRNTGNIGSNYVNWYQQHEGRSPTTMIYRDDKRPDGVPDRFSGSIDRSSNSALLTINNVQTEDEADYFCQSYSSGINIIFGGGTKLTVL heavy, part: QVQLQESGPGLVQPSQTLSLTCTVSGFSLTTYDVHWVRQPPGKGLEWMGRIQNGGITDYNSALKSRLIISRDTSKSQVFLKMNSVQTEDTAMYFCAKTGSYFYAFDHWGQGTLVTVSS"
endpoint_name = "% FITC positive Cells"
reported_result = "31.6%"

[[record]]
binder = "CODV-Fab BFX-9F6-G3 × CD3 (bispecific antibody, part only; not given: anti-CD3 arm, linkers, constant domains, V domains shown, not shown: another chain or arm of the molecule; a dimerising Fc or GST; small tags and cut ends) VL: DIQMTQSPASLSASLGETVTIECRPSEDIHSNVAWYQQKPGNSPQLLIYDASNLADGVPSRFSGSGSGTQYSLKINSLQSEDVASYFCHQYNIYPYTFGSGTKLELK VH: QVQLQESGPTLVKPGDSVKMSCKASGYTFTDYIIHWVKQSHGKSLEWIGYINPYSDGTNYNEKFKSKATLTVDKSTSTAYMEFSRLTSEDSAIYFCALNYGSYYAMDAWGQGTSVTVSS"
endpoint_name = "% FITC positive Cells"
reported_result = "60.7%"

[[record]]
binder = "CODV-Fab BFX-2F8-D6 × CD3 (bispecific antibody, part only; not given: anti-CD3 arm, linkers, constant domains, V domains shown, not shown: another chain or arm of the molecule; a dimerising Fc or GST; small tags and cut ends) VH: QVQLKESGPGLVQPSQTLSLTCTVSGFSLTSYGVSWVRQPPGKGLEWIATISSAGSTYYDLVLKSRLSITRDTSKSQVFLKVHSLQTEDTAIYLCARDAPVFNYGSYNAMDSWGQGTSVTVSS VL: DIQMTQSPSFLSATVGDRVTINCKASQNINKYLNWYQQKLGEAPKRLIYNTNSLQTGIPSRFSGSGSGTDYTLTISSLQPEDVATYFCLQHKSGLTFGSGTKLEIK"
endpoint_name = "% FITC positive Cells"
reported_result = "9.3%"

[[record]]
binder = "CODV-Fab BFX-9D7-C8 × CD3 (bispecific antibody, part only; not given: anti-CD3 arm, linkers, constant domains, V domains shown, not shown: another chain or arm of the molecule; a dimerising Fc or GST; small tags and cut ends) VL: DIVMTQSPSSLAVSEGETVTINCKSSQSFLSSGDGKNYVAWYQYKPGQSPKLLIYWASTRQSGVPDRFIGSGSGTDFTLTISTVQAEDLAIYYCQQYYDTPLTFGSGTKLEIK VH: EVKLQESGPSLVQSSQTLSLTCTVSGFSLTSYHIHWVRQTPGKGLEWMGVMWSDGDTSYNSALKSRLSISRDTSQSQVFLKMNSLQTEDTATYYCARGYYSSYLYLWFAYWGQGTLVTVSS"
endpoint_name = "% FITC positive Cells"
reported_result = "50.2%"

